The measured values listed here are drawn from patent US20240392024A1.

Target: T1, human TNFR2 on the cell membrane (human, UniProt P20333 23-461)
T1 construct: whole, on cells; One molecule for all cell formats; also called TNFR2-CHO cells; CHO-TNFR2
T1 sequence (looked up): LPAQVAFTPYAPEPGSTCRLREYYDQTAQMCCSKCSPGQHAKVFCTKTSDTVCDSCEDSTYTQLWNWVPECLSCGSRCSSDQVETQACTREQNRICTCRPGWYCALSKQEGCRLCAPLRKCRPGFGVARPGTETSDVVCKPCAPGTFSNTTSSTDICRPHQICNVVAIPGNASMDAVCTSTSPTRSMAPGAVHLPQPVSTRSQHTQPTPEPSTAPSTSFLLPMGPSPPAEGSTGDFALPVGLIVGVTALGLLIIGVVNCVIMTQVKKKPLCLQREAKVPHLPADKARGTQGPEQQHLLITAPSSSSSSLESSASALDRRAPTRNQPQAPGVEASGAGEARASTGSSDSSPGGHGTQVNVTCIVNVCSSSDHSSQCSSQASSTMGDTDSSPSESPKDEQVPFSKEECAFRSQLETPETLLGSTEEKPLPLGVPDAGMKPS
Experiment: flow cytometry, Jurkat-TNFR2 cells
Experimental Readout: EC50 (µg/mL)
Report the value in µg/mL with no unit label.

Answered cases to consult:
human-mouse chimeric TNFR2 monoclonal antibody 33C12-hFc (antibody, V domains shown, Mouse V regions of clone 33C12 with human constant regions; also called human-mouse chimeric 33C12 antibody) VH: DVKLVESGGGLVKPGGSLKLSCAASGFTFSDYTMSWVRQTPEKRLEWVATISTGGSYTYYPDSVKGRFTISRDNAKNTLYLQMSSLKSEDTAMYYCTRDGGYDGDYFDYWGQGTTLTVSS VL: ENVLTQSPAIMSASPGEKVTMTCRASSSVSSSYLHWYQQKSGASPKLWIYRTSNLASGVPARFSGSGSGTSYSLTISSVEAEDAATYYCQQYSGYPLTFGAGTRLELK = 0.66
human-mouse chimeric TNFR2 monoclonal antibody 27F6-hFc (antibody, V domains shown, Mouse V regions of clone 27F6 with human constant regions) VH: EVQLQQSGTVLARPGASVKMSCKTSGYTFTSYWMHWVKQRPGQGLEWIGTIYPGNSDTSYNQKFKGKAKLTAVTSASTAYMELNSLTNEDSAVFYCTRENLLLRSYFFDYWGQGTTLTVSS VL: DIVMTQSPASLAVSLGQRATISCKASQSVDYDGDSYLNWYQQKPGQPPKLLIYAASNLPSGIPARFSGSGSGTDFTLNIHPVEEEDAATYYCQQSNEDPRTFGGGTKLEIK = 0.036
human-mouse chimeric TNFR2 monoclonal antibody 7F2-hFc (antibody, V domains shown, Mouse V regions of clone 7F2 with human constant regions) VH: QVTLKESGPGILQPSQTLSLTCSFSGFSLNTFGLGVGWIRQPSGKGLEWLTHIWWNDDKYYNPALKSRLTISRDTSENLVFLKIANVDTADTATYYCARIEGLRRFDYWGQGTTLTVSS VL: DIQMTQSPSSLSASLGGKVTITCKTSQDINKFIAWYQHKPGKGPRLLIHYTSTLQPGIPSRFSGSGSGRDYSFSISDLEPEDIATYYCLQYANLWAFGGGTKLEIK = 0.024

In: Look at this binder and give its reported EC50. human-mouse chimeric TNFR2 monoclonal antibody 12E12-hFc (antibody, V domains shown, Mouse V regions of clone 12E12 with human constant regions; also called human-mouse chimeric 12E12 antibody) VH: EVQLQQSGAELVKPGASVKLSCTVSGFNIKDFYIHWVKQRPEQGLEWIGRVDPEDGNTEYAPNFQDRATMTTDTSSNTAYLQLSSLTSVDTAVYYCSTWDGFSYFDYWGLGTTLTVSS VL: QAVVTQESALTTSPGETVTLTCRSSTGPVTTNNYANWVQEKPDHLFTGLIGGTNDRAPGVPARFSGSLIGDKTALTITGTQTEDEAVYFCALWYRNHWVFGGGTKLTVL
Out: 0.012
